- test.name: Mouse blood and tissue PK (LC/MS-MS)
- Assay type: in vivo
- conditions: mouse, whole blood, po, 25 mg/kg, NCI-H2122 (25 mg/kg), single dose; read-out: Blood t1/2 (converted)
quantity.kind: half-life (h)
Value expressed in h; do not type the unit.

Ask: Can you look up the measured half-life of `CCn1c(-c2cc(N3CCN(C)CC3)cnc2[C@H](C)OC)c2c3cc(ccc31)-c1csc(n1)C[C@H](NC(=O)[C@H]1C[C@@H]1C)C(=O)N1CCC[C@H](N1)C(=O)OCC(C)(C)C2` for me?
Result: 4.5

###

- test.name: Mouse blood and tissue PK (LC/MS-MS)
- Type: in vivo
- conditions: mouse, whole blood, po, 25 mg/kg, HPAC (25 mg/kg), single dose; read-out: Blood AUClast
quantity.kind: AUC(0-t) (ng·h/mL)
Answer format: numeric, ng·h/mL implied, no suffix.

Ask: So what's the measured AUC(0-t) for this one? CCn1c(-c2cc(N3CCN(C)CC3)cnc2[C@H](C)OC)c2c3cc(ccc31)-c1csc(n1)C[C@H](NC(=O)[C@H]1C[C@@H]1C)C(=O)N1CCC[C@H](N1)C(=O)OCC(C)(C)C2 [RMC-6236]
Result: 12000

###

- System: panel of 78 cancer cell lines
- test.name: Cell panel 3D methylcellulose CellTiter-Glo proliferation
- Assay type: cell-based
- conditions: Homo sapiens, SNU-601, SNU601; KRAS G12D; Stomach; read-out: Proliferation Inhibition (EC50)
quantity.kind: pEC50
The quantity pEC50 is defined as the negative base-10 logarithm of the molar concentration.

Ask: For the compound shown here, CCn1c(-c2cc(N3CCN(C)CC3)cnc2[C@H](C)OC)c2c3cc(ccc31)-c1csc(n1)C[C@H](NC(=O)[C@H]1C[C@@H]1C)C(=O)N1CCC[C@H](N1)C(=O)OCC(C)(C)C2 [RMC-6236] , give the reported pEC50.
Result: 7.58

###

- System: panel of 78 cancer cell lines
- test.name: Cell panel 3D methylcellulose CellTiter-Glo proliferation
- Assay type: cell-based
- conditions: Homo sapiens, HPAF-II, HPAFII; KRAS G12D; Pancreas; read-out: Proliferation Inhibition (EC50)
quantity.kind: EC50 (nM)
Give the number; nM is assumed, so skip it.

Ask: Look up EC50: `CCn1c(-c2cc(N3CCN(C)CC3)cnc2[C@H](C)OC)c2c3cc(ccc31)-c1csc(n1)C[C@H](NC(=O)[C@H]1C[C@@H]1C)C(=O)N1CCC[C@H](N1)C(=O)OCC(C)(C)C2`
Result: 6.3

###

- test.name: Mouse blood and tissue PK (LC/MS-MS)
- Assay type: in vivo
- conditions: mouse, tumor relative to whole blood, oral, 25 mg/kg, KP-4 (25 mg/kg), single dose; read-out: Tumor/Blood AUC Ratio
quantity.kind: Kp
When you answer, write just the number.

Ask: Given the molecule CCn1c(-c2cc(N3CCN(C)CC3)cnc2[C@H](C)OC)c2c3cc(ccc31)-c1csc(n1)C[C@H](NC(=O)[C@H]1C[C@@H]1C)C(=O)N1CCC[C@H](N1)C(=O)OCC(C)(C)C2 [RMC-6236] , what is its reported Kp?
Result: 6.4

###

- test.name: Mouse blood and tissue PK (LC/MS-MS)
- Type: in vivo
- conditions: BALB/c nude, mouse, tumor, oral, 3 mg/kg, Capan-2, study Capan-2 #3_PHA 2020, 3 mg/kg, 8h; read-out: RMC-6236 (nM) Tumor
quantity.kind: concentration at 8 h
Respond with the figure and its unit, in that order.

Ask: Given CCn1c(-c2cc(N3CCN(C)CC3)cnc2[C@H](C)OC)c2c3cc(ccc31)-c1csc(n1)C[C@H](NC(=O)[C@H]1C[C@@H]1C)C(=O)N1CCC[C@H](N1)C(=O)OCC(C)(C)C2 [RMC-6236] , state its recorded concentration at 8 h.
Result: 136 nM

The measurements presented in this section are drawn from paper PMC11149917.
